Molecular target: mouse Tas2r144 (Mus musculus, UniProt Q7TQB8)
Construct: expressed in transfected cells; host or cells: HEK293T-Gα16gust44
Sequence (Q7TQB8 whole entry): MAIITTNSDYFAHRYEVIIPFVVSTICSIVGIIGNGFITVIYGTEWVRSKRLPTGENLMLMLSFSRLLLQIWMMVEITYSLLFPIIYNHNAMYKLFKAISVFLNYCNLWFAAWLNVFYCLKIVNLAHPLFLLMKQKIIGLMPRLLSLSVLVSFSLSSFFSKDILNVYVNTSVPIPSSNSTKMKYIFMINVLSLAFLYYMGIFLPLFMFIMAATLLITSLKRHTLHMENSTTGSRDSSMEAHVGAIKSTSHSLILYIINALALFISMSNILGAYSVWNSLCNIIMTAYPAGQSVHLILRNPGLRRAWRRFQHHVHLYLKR
Experiment: Calcium imaging assay (FLIPR), HEK293T-Gα16gust44 cells transfected with mouse Tas2r144
Format: cell-based
Conditions: Time 126.781 s
So I've got a bunch of compounds here, and I need their RLU values.
Record the value in RLU, omitting the unit from your answer.

The compound listed as C[C@H](CCC(=O)NCCS(=O)(=O)O)[C@H]1CC[C@H]2[C@@H]3CC[C@@H]4C[C@H](O)CC[C@]4(C)[C@H]3CC[C@]12C [Taurolithocholic Acid, taurolithocholic acid] shows RLU equal to 327.57

RLU for C[C@H](CCC(=O)O)[C@H]1CC[C@H]2[C@@H]3[C@H](O)C[C@@H]4C[C@H](O)CC[C@]4(C)[C@H]3C[C@H](O)[C@]12C [Cholic Acid, cholic acid] is 373.554

Kindly note the recorded RLU for C[C@H](CCC(=O)NCC(=O)O)[C@H]1CC[C@H]2[C@@H]3[C@H](O)C[C@@H]4C[C@H](O)CC[C@]4(C)[C@H]3C[C@H](O)[C@]12C [Glycocholic Acid, glycocholic acid] , which is 268.257

Short answer for C[C@H](CCC(=O)NCCS(=O)(=O)O)[C@H]1CC[C@H]2[C@@H]3[C@H](O)C[C@@H]4C[C@H](O)CC[C@]4(C)[C@H]3C[C@H](O)[C@]12C [Taurocholic Acid, taurocholic acid] : RLU was 436.51
